Hello, the source for this data is patent US12122776B2, in case you need it.

# Tested on: pLai RLuc reporter virus
# experimentNotes: HIV MT-4 serum shift antiviral reporter assay
# Format: cell-based
# conditions: Human immunodeficiency virus 1, MT4, 72 h, read-out: Antiviral Serum Shift RLuc CCM
measurementLabel: pEC50
In textbook form, pEC50 equals minus log to base ten of the concentration in mol/L.

O=C(NCc1c(F)cc(F)cc1F)c1c2n3c(c(O)c1=O)C(=O)N1CCCC[C@@]3(CC2CO)C1 (stereo partly shown)
9.06

## Input Given O=C(NCc1c(F)cc(F)cc1F)c1c2n3c(c(O)c1=O)C(=O)N1CCCC[C@]3(C1)[C@@H](O)[C@@H]2O (single isomer, unassigned) , state its recorded pEC50.
## Output 8.99

## Input Given C[C@H]1C=CC[C@]23C[C@H](O)c4c(C(=O)NCc5c(F)cc(F)cc5F)c(=O)c(O)c(n42)C(=O)N1C3 (single isomer, unassigned) , state its recorded pEC50.
## Output 9.57

## Input Given O=C(NCc1c(F)cc(F)cc1F)c1c2n3c(c(O)c1=O)C(=O)N1CCCC[C@]3(CC2)C1 , state its recorded pEC50.
## Output 9.45

----------
Recorded EC50 for the following compounds
# Tested on: pLai RLuc reporter virus
# experimentNotes: HIV MT-4 serum shift antiviral reporter assay
# Assay type: cell-based
# conditions: Human immunodeficiency virus 1, MT4, 72 h, read-out: Antiviral Serum Shift RLuc 50% HS
I'd appreciate it if you wrote the number followed by its unit.

O=C(NCc1ccc(F)cc1F)c1c2n3c(c(O)c1=O)C(=O)N1CCCC[C@@]3(C[C@@H]2O)C1 (single isomer, unassigned)
3.3 nM
C[C@]1(O)C[C@@]23CCCCN(C2)C(=O)c2c(O)c(=O)c(C(=O)NCc4c(F)cc(F)cc4F)c1n23 (single isomer, unassigned)
51 nM

Then there is this compound:
## Input Given O=C(NCc1c(F)cc(F)cc1F)c1c2n3c(c(O)c1=O)C(=O)N1CCCC[C@@]3(CC2)C1 , state its recorded EC50.
## Output 8.71 nM

----------
# experimentNotes: Cytotoxicity assay in MT-4 cells
# Assay type: cell-based
# conditions: human; uninfected MT-4 cells, 5 days incubation, Cell Titer Glo
# Description: Cytotoxicity Assay in MT-4 Cells Assays were performed as above except uninfected MT-4 cells were added to each well containing test compound. In addition, 10 μM puromycin was added to the last column of each assay plate to assess a base level of cytotoxicity.
measurementLabel: log10(CC50 at 5 days) (log10 of the value in µM)
The figures below represent log10 of CC50 at 5 days, where CC50 at 5 days is stated in µM.

CO[C@H]1C=C[C@H](C)N2C[C@]13CCc1c(C(=O)NCc4c(F)cc(F)cc4F)c(=O)c(O)c(n13)C2=O
0.29
O=C(NCc1cccc(Cl)c1F)c1c2n3c(c(O)c1=O)C(=O)N1CCCC[C@]3(CC2)C1
0.57
CO[C@H]1C=C[C@H](C)N2C[C@]13CCc1c(C(=O)NCc4ccc(F)cc4F)c(=O)c(O)c(n13)C2=O
0.27
O=C(NCc1ccc(F)cc1F)c1c2n3c(c(O)c1=O)C(=O)N1CCCC[C@]3(CC2)C1
0.71
C[C@H]1CC[C@H](O)[C@]23CCc4c(C(=O)NCc5c(F)cc(F)cc5F)c(=O)c(O)c(n42)C(=O)N1C3
1.42

## Input Given C[C@H]1C=CC[C@]23C[C@@H](O)c4c(C(=O)NCc5c(F)cc(F)cc5F)c(=O)c(O)c(n42)C(=O)N1C3 (single isomer, unassigned) , state its recorded log10(CC50 at 5 days).
## Output 0.68

## Input Given O=C(NCc1c(F)cc(F)cc1F)c1c2n3c(c(O)c1=O)C(=O)N1CCCC[C@@]3(CC2)C1 , state its recorded log10(CC50 at 5 days).
## Output 0.63
